# method: soluble on expression in E. coli; label from the status in PepcDB or PDB records

{"columns": ["sequence input", "soluble on expression in E. coli"],
 "data": [
  ["MAHHHHHHMKGVKFRDNFVKLKEEGPRNATTTNFYGSYFLSENEHLFDINEFEKNLEMKMHKNEENLLILEVKNLNVSIANALRRIMLAEVPTIAIEKVNIFQNTGIIADEILCHRLGLIPFKFDADLINFKEEYEKYNHLNCFCFKLHVKFTKKAGSSETCQSIYSRDLKWCPINEHQKARFQKNPPRVVDDNILITKLSNGQEIELICFLEKGIGKTHAKWSPVCTAVYKMYPAFSFNTCEKFTQEEKKDLVNICPKNVFDVEDSDTLVAKNPLNCSSCRVCIEKYPKKISFEKVKNHFIFTIESTGCFSSADIFRKALLILKDKVVSVKEVLEDQTKA", "not soluble"],
  ["MDESNVSQELLNSNRTEIARCVLLKDLVVMYGGYEVYANHVDLLMCFHQLMIVLAAPPIKPMQKEPGTLLPPRAVVYKLPAIKGSMKDAFSAHKLLKKSYAKPIVDISSTSGDSDPEWWSDRELTPDLNLKRELLLKKARFSRKTFDKRSSYIAHFKKSHLENYLNSDSDTVSNEKPKTLAQLKNFSKSNLVEYHPSMYRDVGVVIIFFSIYYYDLNSFKVNSEIEKQDKIFQEYKKWIFQSVQERRFVSKECTEPKVLSQLHVHVHQN", "not soluble"]
]}

Entry source: the DeepSol protein solubility set
